Readings of shrunken log2 fold change for the listed sequences
Tested on: Escherichia coli TOP10
Assay: shrunken log2 fold change of peptide-encoding DNA abundance (4.5 h post-induction vs induction); higher = less antimicrobial activity (less host growth inhibition)
Details: time post-induction: 4.5 h; library: site-saturation at positions 5, 18, 19, 20
value kind: shrunken log2 fold change

>>> observed_value("RRIRNRPPRLPRPRPRPWKTPRP")
0.0489
>>> observed_value("RRIRDRPPRLPRPRPRPAFRPRP")
0.293
>>> observed_value("RRIRWRPPRLPRPRPRPRNQPRP")
0.145
>>> observed_value("RRIRKRPPRLPRPRPRPNSCPRP")
0.188
>>> observed_value("RRIRVRPPRLPRPRPRPVSWPRP")
0.469
>>> observed_value("RRIRERPPRLPRPRPRPAYFPRP")
0.019
>>> observed_value("RRIRLRPPRLPRPRPRPGIMPRP")
-0.219
>>> observed_value("RRIRQRPPRLPRPRPRPMVYPRP")
0.017
>>> observed_value("RRIRFRPPRLPRPRPRPFGGPRP")
-0.0524
>>> observed_value("RRIRPRPPRLPRPRPRPIGDPRP")
-0.0205
>>> observed_value("RRIRLRPPRLPRPRPRPCYFPRP")
-0.232
>>> observed_value("RRIRYRPPRLPRPRPRPPHVPRP")
-0.142
>>> observed_value("RRIRYRPPRLPRPRPRPWERPRP")
0.0306
>>> observed_value("RRIRVRPPRLPRPRPRPGECPRP")
-0.145
>>> observed_value("RRIRGRPPRLPRPRPRPQQNPRP")
0.383

====

System: Escherichia coli TOP10
Assay: shrunken log2 fold change of peptide-encoding DNA abundance (4.5 h post-induction vs induction); higher = less antimicrobial activity (less host growth inhibition)
Settings: time post-induction: 4.5 h; library: site-saturation at positions 5, 18, 19, 20
value kind: shrunken log2 fold change

>>> observed_value("RRIRRRPPRLPRPRPRPWMRPRP")
0.172
>>> observed_value("RRIRYRPPRLPRPRPRPSITPRP")
-0.857
>>> observed_value("RRIRNRPPRLPRPRPRPHVLPRP")
-0.245
>>> observed_value("RRIRLRPPRLPRPRPRPNMYPRP")
-0.284
>>> observed_value("RRIRVRPPRLPRPRPRPEIPPRP")
0.054
>>> observed_value("RRIRSRPPRLPRPRPRPMINPRP")
-0.23
>>> observed_value("RRIRYRPPRLPRPRPRPKYYPRP")
-1.43
>>> observed_value("RRIRNRPPRLPRPRPRPIAHPRP")
-0.0737
>>> observed_value("RRIRKRPPRLPRPRPRPMKHPRP")
-0.156
>>> observed_value("RRIRGRPPRLPRPRPRPLPQPRP")
0.927
>>> observed_value("RRIRVRPPRLPRPRPRPYLSPRP")
-0.491
>>> observed_value("RRIRLRPPRLPRPRPRPNNGPRP")
0.0736
>>> observed_value("RRIRCRPPRLPRPRPRPYFYPRP")
-1
>>> observed_value("RRIRDRPPRLPRPRPRPHINPRP")
-0.683
>>> observed_value("RRIRWRPPRLPRPRPRPVNHPRP")
-0.191

====

sequences and their reported shrunken log2 fold change
System: Escherichia coli TOP10;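 also: peptides expressed intracellularly from a pBAD plasmid library in pooled LB shake-flask culture, induced with 0.3% L-arabinose, DNA abundance read by NGS, three biological replicates, DESeq2 with apeglm shrinkage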
Test: shrunken log2 fold change of peptide-encoding DNA abundance (4.5 h post-induction vs induction); higher = less antimicrobial activity (less host growth inhibition)
Details: time post-induction: 4.5 h; library: site-saturation at positions 5, 18, 19, 20
value kind: shrunken log2 fold change

>>> observed_value("RRIRWRPPRLPRPRPRPTIPPRP")
-0.109
>>> observed_value("RRIRFRPPRLPRPRPRPAGSPRP")
-0.139
>>> observed_value("RRIRRRPPRLPRPRPRPRDIPRP")
0.0666
>>> observed_value("RRIRVRPPRLPRPRPRPMAMPRP")
-0.00688
>>> observed_value("RRIRFRPPRLPRPRPRPRVDPRP")
-0.055
>>> observed_value("RRIRARPPRLPRPRPRPGAIPRP")
0.828
>>> observed_value("RRIRGRPPRLPRPRPRPPETPRP")
1.24
>>> observed_value("RRIRGRPPRLPRPRPRPYSWPRP")
0.187
>>> observed_value("RRIRYRPPRLPRPRPRPPYDPRP")
-0.553
>>> observed_value("RRIRSRPPRLPRPRPRPRWRPRP")
0.375
>>> observed_value("RRIRERPPRLPRPRPRPRGGPRP")
0.376
>>> observed_value("RRIRCRPPRLPRPRPRPFRLPRP")
-0.0979
>>> observed_value("RRIRDRPPRLPRPRPRPNAMPRP")
-0.0158
>>> observed_value("RRIRYRPPRLPRPRPRPDHHPRP")
-0.0423
>>> observed_value("RRIRDRPPRLPRPRPRPVFGPRP")
0.342
